- Organism: Rattus norvegicus
- experiment: Open TG-GATES - Regimen: Daily Repeat
- Format: toxicity, organism-based, Sprague-Dawley
- Set-up: regimen Daily Repeat, gender Male, age 6 weeks
- measurement-context: in vivo, po, 0 mg/kg, […], tissue Kidney, route gavage, dose level Control, time 28 day
quantity-name: KIDNEY_L (g)

1. CC(C)OC(=O)C(C)(C)Oc1ccc(C(=O)c2ccc(Cl)cc2)cc1 [FENOFIBRATE] :: 1.3
2. CCOc1ccc(NC(=O)CC(C)O)cc1 (stereo not drawn) [BUCETIN] :: 1.4
3. COc1ccc2[nH]c([S+]([O-])Cc3ncc(C)c(OC)c3C)nc2c1 (stereo not drawn) [OMEPRAZOLE] :: 1.3
4. CCCNC(=O)NS(=O)(=O)c1ccc(Cl)cc1 [CHLORPROPAMIDE] :: 1.4
5. NNC(=O)c1ccncc1 [ISONIAZID] :: 1.3
6. CN1C(=O)CN=C(c2ccccc2)c2cc(Cl)ccc21 [DIAZEPAM] :: 1.4
7. O=C(CCCN1CCC(O)(c2ccc(Cl)cc2)CC1)c1ccc(F)cc1 [HALOPERIDOL] :: 1.4
8. CCOC(=O)CCC(=O)O[C@H]1[C@H](O[C@@H]2[C@@H](C)[C@H](O[C@H]3C[C@@](C)(OC)[C@@H](O)[C@H](C)O3)[C@@H](C)C(=O)O[C@H](CC)[C@@](C)(O)[C@H](O)[C@@H](C)C(=O)[C@H](C)C[C@@]2(C)O)O[C@H](C)C[C@@H]1N(C)C [ERYTHROMYCIN ETHYLSUCCINATE] :: 1.4
9. CC1=C(/C=C/C(C)=C/C=C/C(C)=C/CO)C(C)(C)CCC1 [RETINOL] :: 1.4
10. COC1=CC(=O)C[C@@H](C)[C@]12Oc1c(Cl)c(OC)cc(OC)c1C2=O [GRISEOFULVIN] :: 1.4
11. CN(C)CCCN1c2ccccc2CCc2ccccc21 [IMIPRAMINE] :: 1.4
12. NC(N)=Nc1nc(CSCCC(N)=NS(N)(=O)=O)cs1 [FAMOTIDINE] :: 1.4
13. CN(C)CCN(Cc1cccs1)c1ccccn1 :: 1.3

These measurements were taken from ChEMBL document CHEMBL3885861.
